Overview of recorded IC50 for various molecules
measured_on: Recombinant purified human BTK (Homo sapiens)
Sequence (Q06187 whole entry): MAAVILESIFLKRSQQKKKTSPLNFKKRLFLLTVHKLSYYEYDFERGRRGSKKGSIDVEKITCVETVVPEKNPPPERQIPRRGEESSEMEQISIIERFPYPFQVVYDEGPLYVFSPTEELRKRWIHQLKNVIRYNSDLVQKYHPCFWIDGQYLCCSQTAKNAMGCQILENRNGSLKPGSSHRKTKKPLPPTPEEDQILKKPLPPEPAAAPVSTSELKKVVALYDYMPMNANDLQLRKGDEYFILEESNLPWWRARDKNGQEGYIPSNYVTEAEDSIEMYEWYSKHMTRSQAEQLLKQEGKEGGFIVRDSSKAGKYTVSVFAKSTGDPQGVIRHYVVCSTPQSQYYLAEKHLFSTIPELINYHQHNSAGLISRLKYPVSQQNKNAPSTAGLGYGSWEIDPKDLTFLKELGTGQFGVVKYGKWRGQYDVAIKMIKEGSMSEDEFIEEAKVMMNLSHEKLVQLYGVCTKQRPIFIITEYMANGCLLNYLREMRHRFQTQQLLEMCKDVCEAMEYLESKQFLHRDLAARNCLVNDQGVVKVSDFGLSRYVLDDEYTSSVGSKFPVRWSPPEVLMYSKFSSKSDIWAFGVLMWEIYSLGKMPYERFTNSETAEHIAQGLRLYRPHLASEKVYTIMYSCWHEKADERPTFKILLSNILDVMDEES
method_description: BTK kinase inhibitory activity, ADP-Glo kinase assay (Promega V9071)
cond: ATP 10 uM, 8 ng BTK per reaction, 1 hour 30 °C, chemiluminescence

- item_smiles: "CCn1cc(Nc2nc(N[C@@H]3CCCN(C(=O)/C(C#N)=C/C4CC4)C3)c3c(Cl)c[nH]c3n2)cn1"
  IC50, nM: 1.2
- item_smiles: "CCn1cc(Nc2nc(O[C@@H]3CCCN(C(=O)/C(C#N)=C/C4CC4)C3)c3c(Cl)n[nH]c3n2)cn1"
  IC50, nM: 2.2
- item_smiles: "C=CC(=O)N1CCC[C@@H](Nc2nc(Nc3cc(C)ns3)nc3[nH]ccc23)C1"
  IC50, nM: 4.1
- item_smiles: "C=CC(=O)N1CCC[C@@H](Nc2nc(Nc3cnn(Cc4cccc(OC)c4)c3)nc3[nH]cc(Cl)c23)C1"
  IC50, nM: 1.8
- item_smiles: "C=CC(=O)N1CCC[C@@H](Nc2nc(Nc3cnn(CC)c3)nc3[nH]ncc23)C1"
  IC50, nM: 1.6
- item_smiles: "C=CC(=O)N1CC[C@@H](C)[C@@H](Nc2nc(Nc3cnn(CC(F)F)c3)nc3[nH]nc(Cl)c23)C1"
  IC50, nM: 1.3
